Counter-ions that a name gives are not always drawn.
MEASUREMENT_NAME: melting point

Below are worked cases with known answers.
CCCC(CN1CCN(Cc2ccc(Cl)c(Cl)c2)CC1)NC(=O)c1ccc(C)cc1 (stereo not shown) (as salt: HCl) [compound 23] | 199.5 to 203.5 °C
CC(C)C(CN1CCN(Cc2ccc(Cl)c(Cl)c2)CC1)NC(=O)c1ccccn1.Cl.Cl (racemic) [compound 7] | 226.2 to 229.9 °C
COc1cccc(NC(=O)NC(C(C)C)C2CCN(Cc3ccc(Cl)c(Cl)c3)CC2)c1 (racemic) [compound 132] | 161.4 to 161.8 °C
Cc1ccc(C(=O)N[C@H](CN2CCC(Cc3ccc(Cl)c(Cl)c3)CC2)C(C)C)s1 (as salt: HCl) [compound 71] | 45 to 47.5 °C
Cc1ccc(C(=O)N2CCC[C@@H]2CN2CCN(Cc3ccc(Cl)c(Cl)c3)CC2)cc1 (as salt: HCl) [compound 78, Dihydrochloride Salt] | 249.6 to 250.1 °C

In plain terms, "COc1ccc(C(=O)N[C@H](CN2CCN(Cc3ccc(Cl)c(Cl)c3)CC2)C(C)C)cc1.Cl.Cl" has a documented melting point of 222.5 to 223 °C

# molecule "Cc1ccc(C(=O)N[C@H](CN2CCN(Cc3ccc(Cl)c(Cl)c3)CC2)C(C)(C)C)cc1.Cl.Cl" ; its melting point = 238 to 242 °C

----------
- System: CCR-3 L1.2 transfectant cells
- RUN_DESCRIPTION: Inhibition of eotaxin mediated chemotaxis of CCR-3 L1.2 transfectant cells
- Format: cell-based
- CONDITION_SET: concentration required to reduce eotaxin mediated chemotaxis of CCR-3 L1.2 transfected cells by 50%
pIC50: −log10 of the molar value.
MEASUREMENT_NAME: pIC50

Cc1ccc(C(=O)N[C@H](CN2CCC(Cc3ccc(Cl)c(Cl)c3)CC2)C(C)C)cc1 | 6.62
Cc1cc(C)c(NC(=O)N[C@@H](CN2CCN(Cc3ccc(Cl)c(Cl)c3)CC2)C(C)C)c(C)c1 | 7.22

a = COc1cc(N)c(Cl)cc1C(=O)NCC1CCN(CC(NC(=O)c2ccc(C)cc2)C(C)C)CC1 (racemic)
b = COc1cccc(NC(=O)NC2CCCCC2N2CCN(Cc3ccc(Cl)c(Cl)c3)CC2)c1 (racemic)
## Task Looking at a and b , which one comes out lower in pIC50 terms? Please reply using the label of the selected record.
## Result b
(b: 6.34, a: 6.68)

----------
Structures can show the parent of a compound that is named as a salt.
MEASUREMENT_NAME: melting point

Take a look at these entries with their results.
COc1cccc(NC(=O)N[C@H](CN2CCN(Cc3ccc(Cl)c(Cl)c3)CC2)C(C)C)c1 (as salt: HCl) [compound 98] | 97.5 to 99.5 °C
Cc1cc(C)c(NC(=O)N[C@@H](CN2CCN(Cc3ccc(Cl)c(Cl)c3)CC2)C(C)C)c(C)c1 [compound 93] | 271.1 to 275.5 °C
CC(C)(C)[C@@H](CN1CCC(Cc2ccc(Cl)c(Cl)c2)CC1)NC(=O)c1ccc(Cl)cc1 [compound 61] | 63 to 68 °C

Notebook: Cc1ccc(C(=O)N[C@H](CN2CCN(Cc3ccc(Cl)c(Cl)c3)CC2)C(C)C)cc1 (as salt: HCl) [compound 8, dihydrochloride salt] , melting point read as 229 to 229.6 °C

Query Cc1ccc(NC(=O)N[C@H](CN2CCC(Cc3ccc(Cl)c(Cl)c3)CC2)C(C)(C)C)cc1 (as salt: HCl) [compound 100] yields melting point of 109.5 to 111 °C

Lab note: measured melting point of Cc1ccc(C(=O)NC(CC2CCN(Cc3ccc(Cl)c(Cl)c3)CC2)C(C)C)cc1 (racemic) (as salt: hydrochloride) [compound 133, Dihydrochloride Salt] was 233.9 to 235.5 °C

Data point: COc1cccc(NC(=O)N[C@H](CN2CCC(Cc3ccc(Cl)c(Cl)c3)CC2)C(C)(C)C)c1 [compound 99] ; melting point = 75.1 to 80.3 °C

# melting point of CC(C)C(CN1CCN(Cc2ccc(Cl)c(Cl)c2)CC1)NC(=O)c1ccncc1 (stereo not shown) (as salt: HCl) [compound 20] = 150 to 153 °C

melting point for O=C(N[C@@H](CN1CCN(Cc2ccc(Cl)c(Cl)c2)CC1)C1CCCCC1)c1ccc(Cl)cc1 [compound 35] is 149 to 155 °C

So for Cc1ccc(C(=O)N[C@H](CN2CCC(Cc3ccc(Cl)c(Cl)c3)CC2)C(C)C)cc1 (as salt: HCl) [compound 57] , the logged melting point turned out to be 87 to 90 °C

----------
- TEST_SYSTEM: CCR-3 receptor (Homo sapiens)
- Construct: expressed in transfected cells; host or cells: L1.2 cells (murine pre-B lymphoma line)
- Sequence (P51677 whole entry): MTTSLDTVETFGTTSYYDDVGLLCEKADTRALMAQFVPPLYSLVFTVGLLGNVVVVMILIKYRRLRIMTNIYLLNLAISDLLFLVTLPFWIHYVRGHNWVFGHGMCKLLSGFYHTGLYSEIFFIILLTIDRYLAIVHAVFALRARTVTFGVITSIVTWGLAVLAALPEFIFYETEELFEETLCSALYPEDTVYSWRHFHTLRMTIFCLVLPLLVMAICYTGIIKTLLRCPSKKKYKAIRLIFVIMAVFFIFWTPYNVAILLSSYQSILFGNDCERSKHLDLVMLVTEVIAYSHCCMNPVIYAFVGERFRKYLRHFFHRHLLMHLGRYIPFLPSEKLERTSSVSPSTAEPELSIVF
- RUN_DESCRIPTION: CCR-3 Receptor Binding Assay, inhibition of 125I eotaxin binding to CCR-3 L1.2 transfectant cells
- CONDITION_SET: concentration required to reduce 125I-eotaxin binding to the CCR-3 L1.2 transfected cells by 50%
pIC50: −log10 of the molar value. Where a name gives a salt, the structure may show the parent alone.
MEASUREMENT_NAME: pIC50

Check out these entries, answers already filled in.
CC(C)(C)[C@@H](CN1CCC(Cc2ccc(Cl)c(Cl)c2)CC1)NC(=O)c1ccc(Cl)cc1 | 5.75
COc1cccc(NC(=O)NC2CCCCC2N2CCN(Cc3ccc(Cl)c(Cl)c3)CC2)c1 (racemic) | 6.16
CC(C)C(CN1CCN(Cc2ccc(Cl)c(Cl)c2)CC1)NC(=O)Nc1cccc(Br)c1 (stereo not shown) | 5.83
CC(C)C(CN1CCN(Cc2ccc(Cl)c(Cl)c2)CC1)NC(=O)Cc1cccs1 (racemic) | 5.84
COc1cccc(NC(=O)N[C@H](CN2CCC(Cc3ccc(Cl)c(Cl)c3)CC2)C(C)(C)C)c1 | 5.63

P = CC(=O)c1cccc(NC(=O)NC(CN2CCN(Cc3ccc(Cl)c(Cl)c3)CC2)C(C)C)c1 (stereo not shown)
Q = Cc1ccc(C(=O)N[C@H](CN2CCN(Cc3ccc(Cl)c(Cl)c3)CC2)C(C)C)cc1 [compound 8, dihydrochloride salt]
## Task Would you let me know which has the greater pIC50 value, P or Q ? Choose, then provide that item's label.
## Result Q
(Q: 6.62, P: 5.72)

----------
- TEST_SYSTEM: CCR-3 receptor (Homo sapiens)
- Construct: expressed in transfected cells; host or cells: L1.2 cells (murine pre-B lymphoma line)
- RUN_DESCRIPTION: CCR-3 Receptor Binding Assay, inhibition of 125I eotaxin binding to CCR-3 L1.2 transfectant cells
- CONDITION_SET: concentration required to reduce 125I-eotaxin binding to the CCR-3 L1.2 transfected cells by 50%
pIC50: −log10 of the molar value. Counter-ions that a name gives are not always drawn.
MEASUREMENT_NAME: pIC50

CC(C)C(CN1CCN(Cc2ccc(Cl)cc2)CC1)NS(=O)(=O)c1ccc(Cl)cc1 (racemic) | 5.82

1 = CC(C)C(CN1CCN(Cc2ccc(Cl)c(Cl)c2)CC1)NC(=O)c1ccccn1.Cl.Cl (racemic) [compound 7, dihydrochloride salt]
2 = Cc1ccc(C(=O)N2CCC[C@@H]2CN2CCN(Cc3ccc(Cl)c(Cl)c3)CC2)cc1 [compound 78, Dihydrochloride Salt]
## Task Rank 1 against 2 by their pIC50 values and give the higher one. Give the label under which the chosen entry appears.
## Result 1
(1: 6.38, 2: 5.30)

Values were extracted from patent US6770650B2.
